Assay: in vitro
Conditions: mouse, BA/F3 cells
Description: Growth inhibition of mouse BA/F3 cells assessed as inhibition of cell growth incubated for 72 hrs by Cell-titer-Glo assay
Entries and their GI50 at 72 h values follow.
Respond numerically; units are µM and should not be typed.

Quick one: GI50 at 72 h of COc1cc(O)c2c(c1)-c1cccc(c1)[C@H](O)[C@H](O)C(=O)/C=C\C[C@H](C)OC2=O ?
12

Likewise for COc1cc(O)c2c(c1)CCC[C@H](O)[C@H](O)C(=O)/C=C\C[C@H](C)OC2=O ?
1.7

Repeat for the following compound: COc1cc(O)c2c(c1)-c1cccc(c1)[C@@H](O)[C@H](O)C(=O)C/C=C/[C@H](C)OC2=O
11

Do the same for COc1cc(O)c2c(c1)-c1cccc(c1)[C@@H](O)[C@H](O)C(=O)/C=C\C[C@H](C)OC2=O please
10

----------
Target: Vascular endothelial growth factor receptor 2 (Homo sapiens, UniProt P35968)
Sequence (P35968 whole entry): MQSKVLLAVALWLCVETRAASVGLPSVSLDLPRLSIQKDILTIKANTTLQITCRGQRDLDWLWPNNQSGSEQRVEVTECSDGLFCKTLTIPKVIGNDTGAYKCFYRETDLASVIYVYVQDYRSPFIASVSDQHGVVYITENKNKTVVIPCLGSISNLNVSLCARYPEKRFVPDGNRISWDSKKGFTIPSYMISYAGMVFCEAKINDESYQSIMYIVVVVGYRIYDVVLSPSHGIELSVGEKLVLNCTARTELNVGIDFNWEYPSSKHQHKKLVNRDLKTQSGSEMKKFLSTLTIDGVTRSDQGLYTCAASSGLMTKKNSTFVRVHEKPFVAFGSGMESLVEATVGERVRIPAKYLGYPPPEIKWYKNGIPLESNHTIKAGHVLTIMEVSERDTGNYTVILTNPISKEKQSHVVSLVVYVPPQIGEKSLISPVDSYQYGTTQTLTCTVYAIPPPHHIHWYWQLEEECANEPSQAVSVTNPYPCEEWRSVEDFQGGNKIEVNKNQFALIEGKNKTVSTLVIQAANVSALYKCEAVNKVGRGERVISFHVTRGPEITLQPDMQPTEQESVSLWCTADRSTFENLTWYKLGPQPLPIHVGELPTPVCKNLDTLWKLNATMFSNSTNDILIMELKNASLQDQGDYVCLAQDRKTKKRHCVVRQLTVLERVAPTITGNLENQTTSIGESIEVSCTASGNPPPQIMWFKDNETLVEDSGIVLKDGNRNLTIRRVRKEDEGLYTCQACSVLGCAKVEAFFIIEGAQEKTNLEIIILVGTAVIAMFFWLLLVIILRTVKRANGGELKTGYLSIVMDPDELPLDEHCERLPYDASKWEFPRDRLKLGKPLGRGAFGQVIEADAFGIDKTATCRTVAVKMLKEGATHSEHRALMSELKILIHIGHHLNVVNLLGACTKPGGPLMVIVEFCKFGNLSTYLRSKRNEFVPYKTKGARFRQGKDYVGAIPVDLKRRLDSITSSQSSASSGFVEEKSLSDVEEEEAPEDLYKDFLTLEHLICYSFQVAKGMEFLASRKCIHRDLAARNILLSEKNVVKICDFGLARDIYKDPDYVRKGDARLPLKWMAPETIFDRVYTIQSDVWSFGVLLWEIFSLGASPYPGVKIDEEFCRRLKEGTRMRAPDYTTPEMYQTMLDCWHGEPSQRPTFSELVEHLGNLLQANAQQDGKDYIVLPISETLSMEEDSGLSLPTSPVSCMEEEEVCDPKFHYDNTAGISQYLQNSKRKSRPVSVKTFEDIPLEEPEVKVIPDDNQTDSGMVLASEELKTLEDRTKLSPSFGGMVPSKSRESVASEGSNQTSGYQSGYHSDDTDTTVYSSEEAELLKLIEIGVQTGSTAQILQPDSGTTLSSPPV
measurement_label: GI50 (µM)
// return numeric value only (unit: µM, not printed)

{"smiles_code": "CCn1c(N)c(C(=O)NC)c(=O)c2ccc(C#C[C@@](C)(O)COC)nc21", "measurement_label": "GI50", "observed_measurement": 4.6}

// next item, GI50 requested
Reported GI50, molecule COc1cc(O)c2c(c1)CCC[C@H](O)[C@H](O)C(=O)/C=C\C[C@H](C)OC2=O : ____
0.14

----------
Entries and their measured GI50 at 72 h follow.
Assay: in vitro
Conditions: mouse, BA/F3 cells

What does the data say about its GI50 at 72 h? Entry: COc1cc(O)c2c(c1)-c1cccc(c1)[C@H](O)[C@H](O)C(=O)CCC[C@H](C)OC2=O
> 25 µM

Please answer likewise for COc1cc(O)c2c(c1)-c1cccc(c1)[C@H](O)[C@@H](O)C(=O)CCC[C@H](C)OC2=O
> 25 µM

----------
Molecular target: UniProtKB P35968
measurement_label: pIC50
pIC50 (log units): -log10 of the concentration in mol/L.

Provide value of pIC50 for this record tested with UniProtKB P35968: COc1cc(O)c2c(c1)CCC[C@H](O)[C@H](O)C(=O)/C=C\C[C@H](C)OC2=O
8.54

----------
Molecular target: c-Kit (Mast/stem cell growth factor receptor Kit) (Homo sapiens, UniProt P10721)
Sequence (P10721 whole entry): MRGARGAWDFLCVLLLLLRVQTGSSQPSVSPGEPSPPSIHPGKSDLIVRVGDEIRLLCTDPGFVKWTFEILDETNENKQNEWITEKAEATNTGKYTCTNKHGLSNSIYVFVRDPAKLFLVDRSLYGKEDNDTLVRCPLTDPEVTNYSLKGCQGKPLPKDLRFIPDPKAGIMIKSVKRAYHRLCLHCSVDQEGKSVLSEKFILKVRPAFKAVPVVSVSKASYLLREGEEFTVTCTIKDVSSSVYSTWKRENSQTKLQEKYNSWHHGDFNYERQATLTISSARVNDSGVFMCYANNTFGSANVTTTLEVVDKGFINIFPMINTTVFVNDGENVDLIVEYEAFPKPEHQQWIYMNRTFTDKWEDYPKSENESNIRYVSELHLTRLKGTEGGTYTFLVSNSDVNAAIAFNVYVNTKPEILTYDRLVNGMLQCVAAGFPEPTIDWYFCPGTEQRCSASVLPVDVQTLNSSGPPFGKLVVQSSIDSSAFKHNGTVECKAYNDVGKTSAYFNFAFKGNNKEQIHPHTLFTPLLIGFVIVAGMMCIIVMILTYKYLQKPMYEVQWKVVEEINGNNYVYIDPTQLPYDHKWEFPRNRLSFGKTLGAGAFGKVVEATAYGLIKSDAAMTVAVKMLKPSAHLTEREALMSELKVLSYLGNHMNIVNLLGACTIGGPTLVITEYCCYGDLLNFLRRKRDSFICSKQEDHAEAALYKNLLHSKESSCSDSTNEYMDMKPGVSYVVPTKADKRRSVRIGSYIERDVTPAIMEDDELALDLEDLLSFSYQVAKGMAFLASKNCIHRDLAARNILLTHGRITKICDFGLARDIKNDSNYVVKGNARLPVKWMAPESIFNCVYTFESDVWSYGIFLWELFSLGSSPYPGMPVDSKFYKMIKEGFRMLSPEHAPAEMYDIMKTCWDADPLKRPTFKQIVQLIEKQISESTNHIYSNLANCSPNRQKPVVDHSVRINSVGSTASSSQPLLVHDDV
Experiment: Inhibition of human c-Kit assessed as enzyme residual activity at 10 uM using poly[Glu:Tyr] (4:1) substrate and [gamma-33P]-ATP by radiometric biochemical kinase assay relative to control
Conditions: probe poly[Glu:Tyr] (4:1), read-out: Activity
measurement_label: activity at 10 µM (%)
Hi! Could you send only the number? It should be in %, unit omitted.

Fill in the blank: the reported activity at 10 µM of COc1cc(O)c2c(c1)-c1cccc(c1)[C@@H](O)[C@H](O)C(=O)/C=C\C[C@H](C)OC2=O is ____.
82.2

----------
Reported GI50, Vascular endothelial growth factor receptor 3 (Homo sapiens).
Write the value in nM as a bare number.

{"smiles_code": "CCn1c(N)c(C(=O)NC)c(=O)c2ccc(C#C[C@@](C)(O)COC)nc21", "experimental_target": "Vascular endothelial growth factor receptor 3 (Homo sapiens)", "quantity_unit": "nM", "GI50": 59}

In the following, a different compound is considered.
So what does the record say about GI50 for COc1cc(O)c2c(c1)CCC[C@H](O)[C@H](O)C(=O)/C=C\C[C@H](C)OC2=O ?
50

----------
Assay: in vitro
Settings: mouse, BA/F3 cells
measurement_label: GI50 at 72 h

{"smiles_code": "COc1cc(O)c2c(c1)-c1cccc(c1)CCC(=O)/C=C\\C[C@H](C)OC2=O", "observed_measurement": "> 25 µM"}
{"smiles_code": "COc1cc(O)c2c(c1)-c1cccc(c1)[C@@H](O)[C@H](O)[C@@H](N)/C=C\\C[C@H](C)OC2=O", "observed_measurement": "> 25 µM"}

Turning now to a further record.
Sample COc1cc(O)c2c(c1)-c1cccc(c1)[C@H](O)[C@@H](O)C(=O)/C=C\C[C@H](C)OC2=O — what was its GI50 at 72 h?
17 µM
